Assay: Other, Phenomenex Kinetex PFP, 100 × 4.6 mm, 5 µm, 45 °C, 0.6 mL/min, estimated dead time 1.8 min; A: water + 0.1% trifluoroacetic acid, pH 2; B: methanol; gradient (min/%B) 0/40 20/72 21/40
Conditions: stereoisomer not certain

>  <compound>
O=C(C=Cc1ccc(O)c(O)c1)OC1CC(O)(C(=O)O)CC(O)C1O (centres undefined) [Chlorogenic acid]

>  <measurement-units>
min

>  <LC retention time>
4.03

$$$$
>  <compound>
O=c1cc(-c2ccc(O)c(O)c2)oc2cc(O)cc(O)c12 [Luteolin]

>  <measurement-units>
min

>  <LC retention time>
18.6

$$$$
>  <compound>
O=c1c(-c2ccc(O)cc2)coc2cc(O)cc(O)c12 [Genistein]

>  <measurement-units>
min

>  <LC retention time>
18

$$$$
>  <compound>
O=c1c(OC2OC(CO)C(O)C(O)C2O)c(-c2ccc(OS(=O)(=O)O)c(O)c2)oc2cc(O)cc(O)c12 (centres undefined) [Isoquercitrin 4-O-sulfate]

>  <measurement-units>
min

>  <LC retention time>
7.77

$$$$
>  <compound>
O=C(O)c1ccc(O)cc1 [4-Hydroxybenzoic acid]

>  <measurement-units>
min

>  <LC retention time>
5.08

$$$$
>  <compound>
Cc1ccc(O)c(OS(=O)(=O)O)c1 [4-Methylcatechol monosulfate]

>  <measurement-units>
min

>  <LC retention time>
4.92

$$$$
>  <compound>
O=c1c(OS(=O)(=O)O)c(-c2ccc(O)c(O)c2)oc2cc(O)cc(O)c12 [Quercetin 3-O-sulfate]

>  <measurement-units>
min

>  <LC retention time>
14.7

$$$$
>  <compound>
COc1cc(C=O)ccc1O [Vanillin]

>  <measurement-units>
min

>  <LC retention time>
6.9

$$$$
>  <compound>
Oc1ccc(C=Cc2cc(O)cc(O)c2)cc1 [Resveratrol]

>  <measurement-units>
min

>  <LC retention time>
10.8

$$$$
